Assay: Phage ELISA of phage binding to hair
Design: species or system human
Conditions: phage-displayed peptide, 1×10^11 pfu; A450; relative to HP2-TonB-Gray3 = 100
Param label: returns Y when ELISA (%) relative to the activity of HP2-TonB-Gray3 < 8%, returns N otherwise, including exact equality.

Example entries and their recorded answers appear below.
Molecule: Gray5-[(KP)6GG]2-HP2: hair-binding domain, SEQ ID NO: 99 (peptide) PSTAEIQSSKNPNPHPQRSWTNGPKPKPKPKPKPKPGGKPKPKPKPKPKPGGPAAQSQLPDKHSGLHERAPQRYGS
Class Name: Y

Molecule: Gray3-TonB-HP1: hair-binding domain, SEQ ID NO: 98 (peptide) PSHDHKNQKETHQRHAAGPEPEPEPEPIPEPPKEAPVVIEKPKPKPKPKPKPPAGSCVDTHKADSCVANNGPATGS
Class Name: Y

Molecule: Gray5-(EAAAKLL)3-MEA4: hair-binding domain, SEQ ID NO: 90 (peptide) PSTAEIQSSKNPNPHPQRSWTNGPEAAAKLLEAAAKLLEAAAKLLPAHINKTNPHQGNHHSEKTQRQGS
Class Name: N

Inquiry: Field: below-cutoff. Rule: recorded ELISA (%) relative to the activity of HP2-TonB-Gray3 strictly less than 8%. Subject: HP2-TonB-MEA4: hair-binding domain, SEQ ID NO: 89 (peptide) PSAQSQLPDKHSGLHERAPQRYGPEPEPEPEPIPEPPKEAPVVIEKPKPKPKPKPKPPAHINKTNPHQGNHHSEKTQRQGS
Reply text: Y

Inquiry: Field: below-cutoff. Rule: recorded ELISA (%) relative to the activity of HP2-TonB-Gray3 strictly less than 8%. Subject: HP2-(EEAAKK)5-Gray4A: hair-binding domain, SEQ ID NO: 74 (peptide) PSAQSQLPDKHSGLHERAPQRYGPEEAAKKEEAAKKEEAAKKEEAAKKEEAAKKPAHNHMQERYTAPQHSPSVNGLGS
Reply text: N

Inquiry: Field: below-cutoff. Rule: recorded ELISA (%) relative to the activity of HP2-TonB-Gray3 strictly less than 8%. Subject: HP2-TonB-IB5A: hair-binding domain, SEQ ID NO: 88 (peptide) PSAQSQLPDKHSGLHERAPQRYGPEPEPEPEPIPEPPKEAPVVIEKPKPKPKPKPKPPATPPELLHGAPRSGS
Reply text: N

Inquiry: Field: below-cutoff. Rule: recorded ELISA (%) relative to the activity of HP2-TonB-Gray3 strictly less than 8%. Subject: HP2-TonB-HB1: hair-binding domain, SEQ ID NO: 93 (peptide) PSAQSQLPDKHSGLHERAPQRYGPEPEPEPEPIPEPPKEAPVVIEKPKPKPKPKPKPPATPPTNVLMLATKGS
Reply text: Y

Reference for the values: patent US9278138B2
